- Experimental details: in vivo
- Type: in vivo
- Condition summary: in vivo; ratio of LD50 to ED50 tetrabenazine antagonism (head is a drawing); read-out: Dosage [drawing 7]
So I've got a bunch of compounds here, and I need their selectivity ratio values.
One number for each entry.

Compound	selectivity ratio
Cc1ccc2c(c1)c1c3n2CCN=C3CCC1 [Example 1]	18

Q: What does the record list as selectivity ratio for COc1ccc2c(c1)c1c3n2CCN=C3CCC1 [Example 2] ?
Ans: 18.5
